These data points were gathered from the supplement of paper PMC11451515.

Give measured AUC of viability dose-response curve for each item. Keep answers brief.
System: SEM cells
Assay name: AUC of viability dose-response curve (% viability x log10 dose units); higher = less sensitive
Conditions used: HPLM + 10% dialyzed FBS; 48 h
One number for each entry.

# Compound, Measured target, AUC of viability dose-response curve
rows = [
    ("CN(C)CCN(C)CCc1ccc(Cl)c(Cl)c1", "SEM cells", 466),
    ("Cc1ccc(C(C)(O)c2nc3ccccc3s2)c(C)c1 (centres undefined)", "SEM cells", 386),
    ("CN(C)CCOC(c1ccccc1)c1ccccc1", "SEM cells", 460),
]

Return reported AUC of viability dose-response curve values for all items listed beneath this line.
1. Fc1ccc(C(c2ccc(F)cc2)N2CCN(C/C=C/c3ccccc3)CC2)cc1
2. C#CCN(C)[C@H](C)Cc1ccccc1
3. CC(=O)N1CCN(c2ccc(OCc3nn(C)c(C)c3-c3cccc4c(CCCOc5cc(C)c(Cl)c(C)c5)c(C(=O)O)n(Cc5cccnc5)c34)cc2)CC1
4. COCCOC(=O)C/1=C(C)/NC/2=C(C1C3=CC=CC(=C3)O)/C(=O)CC(C2)C4=C(OC)C=CC=C4 (centres undefined)
5. CC(C)NCC(O)c1ccc(O)c(O)c1 (centres undefined)

Reply:
1: 404; 2: 401; 3: 453; 4: 425; 5: 455

Return reported AUC of viability dose-response curve values for all items listed beneath this line.
1. C[N]1C=NC=C1[C@@](N)(C2=CC=C(Cl)C=C2)C3=CC=C4N(C)C(=O)\C=C(\C5=CC=CC(=C5)Cl)C4=C3
2. C[C@H](NC(=O)C(=O)Nc1ccccc1C(C)(C)C)C(=O)N[C@@H](CC(=O)O)C(=O)COc1c(F)c(F)cc(F)c1F
3. C\C1=N\N=C(\C2=CC=C(N)C=C2)C3=CC4=C(OCO4)C=C3C1
4. O=C(O)[C@H](Cc1c[nH]c2ccccc12)N1C(=O)c2ccccc2C1=O

Reply:
[284, 395, 467, 445]

Return reported AUC of viability dose-response curve values for all items listed beneath this line.
1. CC#C[C@]1(O)CC[C@H]2[C@@H]/3CCC/4=C/C(=O)CCC4=C3[C@H](C[C@]12C)C5=CC=C(C=C5)N(C)C
2. CNC(=O)c1cccc(-c2ccc3c(N4CCOC[C@@H]4C)nc(N4CCOC[C@@H]4C)nc3n2)c1
3. CN1CCCN(C(=O)c2cccc(-c3ccc(/C=C4/C(=O)Nc5ccc(Cl)cc54)o3)c2)CC1

Reply:
384
305
362
